These data points were gathered from PubChem BioAssay AID1963967.

Tested on: 855422-203-R-J1-PDC spheroids with HUVEC/MSC, viability
Measurement Description: Anticancer human tumor 855422-203-R-J1-PDC patient-derived bladder carcinoma cell line growth inhibition [PI3K]
Experimental Context: curve of first compound; second compound 0.1 µM
Assay Metric: IC50 (µM)
Your answer is read as µM, so omit the unit and give the number.

Use the examples below as a reference point.
input: Which IC50 value is on record for CC(C)n1nc(-c2ccc3oc(N)nc3c2)c2c(N)ncnc21 + CC(Nc1ncnc2nc[nH]c12)c1cc2cccc(Cl)c2c(=O)n1-c1ccccc1 ?
output: 0.0502

input: // query IC50 value for entry CCN1CCN(Cc2ccc(Nc3ncc(F)c(-c4cc(F)c5nc(C)n(C(C)C)c5c4)n3)nc2)CC1 + Cc1nc(NC(=O)N2CCCC2C(N)=O)sc1-c1ccnc(C(C)(C)C(F)(F)F)c1
output: 0.816

input: # input compound: CC(=O)c1c(C)c2cnc(Nc3ccc(N4CCNCC4)cn3)nc2n(C2CCCC2)c1=O + CC(Nc1ccc2c(c1)OCCn1cc(N3C(=O)OCC3C(F)F)nc1-2)C(N)=O ; wanted: its IC50
output: 0.0755

Kindly consider the entry below.
input: For the compound shown here, CC1(C)CCC(CN2CCN(c3ccc(C(=O)NS(=O)(=O)c4ccc(NCC5CCOCC5)c([N+](=O)[O-])c4)c(Oc4cnc5[nH]ccc5c4)c3)CC2)=C(c2ccc(Cl)cc2)C1 + CC(Nc1ncnc2nc[nH]c12)c1cc2cccc(Cl)c2c(=O)n1-c1ccccc1 , give the reported IC50.
output: 4.87

* * *

# pIC50 per record follows
Tested on: 855422-203-R-J1-PDC spheroids with HUVEC/MSC, viability
Measurement Description: Anticancer human tumor 855422-203-R-J1-PDC cell line growth inhibition [PI3K];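 note: agents incubated with spheroids for one week before read-out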
Experimental Context: curve of first compound; second compound 0.316 µM
pIC50: −log10 of the molar value.

Study these solved cases before continuing.
input: State the recorded pIC50 for this entry: CCN1CCN(Cc2ccc(Nc3ncc(F)c(-c4cc(F)c5nc(C)n(C(C)C)c5c4)n3)nc2)CC1 + CC(Nc1ncnc2nc[nH]c12)c1cc2cccc(Cl)c2c(=O)n1-c1ccccc1
output: < 6.00

input: Which value of pIC50 has been reported for C#Cc1c(F)ccc2cc(O)cc(-c3ncc4c(N5CC6CCC(C5)N6)nc(OCC56CCCN5CC(F)C6)nc4c3F)c12 (stereo not drawn) + Cc1nc(NC(=O)N2CCCC2C(N)=O)sc1-c1ccnc(C(C)(C)C(F)(F)F)c1 in the records?
output: < 5.00

Kindly review the next molecule as well.
input: I am curious: what pIC50 value has been reported for CC1(C)CCC(Nc2ncc(C(F)(F)F)c(-c3c[nH]c4c(P(C)(C)=O)c(C#N)ccc34)n2)CN1 (stereo not drawn) + COc1c(OCCCN2CCOCC2)ccc2c3n(c(=NC(=O)c4cnc(N)nc4)nc12)CCN3 ?
output: > 7.50

* * *

System: 855422-203-R-J1-PDC spheroids with HUVEC/MSC, viability
Measurement Description: Anticancer human tumor 855422-203-R-J1-PDC cell line growth inhibition [PI3K];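 note: agents incubated with spheroids for one week before read-out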;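 for viability, T/C: 100% = DMSO vehicle-treated control wells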
Experimental Context: second compound 0.01 µM; first compound 10 µM; stronger effect = lower value
Entries annotated with measured viability, T/C
The answer is to be given in %; state only the numeric part.

Reference set (5 entries):
input: Return reported viability, T/C; argument: CNC(=O)c1ccc(N2C(=S)N(c3ccc(C#N)c(C(F)(F)F)c3)C(=O)C2(C)C)cc1F + COc1c(OCCCN2CCOCC2)ccc2c3n(c(=NC(=O)c4cnc(N)nc4)nc12)CCN3
output: 68.5

input: Query: viability, T/C; subject: Cn1ncc(Cl)c1-c1cc(C(=O)NC(CN)Cc2cccc(F)c2)sc1Cl (stereo unspecified) + CC(Nc1ccc2c(c1)OCCn1cc(N3C(=O)OCC3C(F)F)nc1-2)C(N)=O
output: 8.23

input: Please look up its viability, T/C: C#Cc1c(F)ccc2cc(O)cc(-c3ncc4c(N5CC6CCC(C5)N6)nc(OCC56CCCN5CC(F)C6)nc4c3F)c12 (stereo unspecified) + COc1c(OCCCN2CCOCC2)ccc2c3n(c(=NC(=O)c4cnc(N)nc4)nc12)CCN3
output: 105

input: Using the record for CC1(C)CCC(CN2CCN(c3ccc(C(=O)NS(=O)(=O)c4ccc(NCC5CCOCC5)c([N+](=O)[O-])c4)c(Oc4cnc5[nH]ccc5c4)c3)CC2)=C(c2ccc(Cl)cc2)C1 + CC(Nc1ccc2c(c1)OCCn1cc(N3C(=O)OCC3C(F)F)nc1-2)C(N)=O , report its viability, T/C.
output: 1.5

input: Can you share its viability, T/C? I mean this compound: CC1(C)CCC(Nc2ncc(C(F)(F)F)c(-c3c[nH]c4c(P(C)(C)=O)c(C#N)ccc34)n2)CN1 (stereo unspecified) + COc1c(OCCCN2CCOCC2)ccc2c3n(c(=NC(=O)c4cnc(N)nc4)nc12)CCN3
output: 3.49

New cases:
input: Any idea what viability, T/C was measured for CC(Cn1ccc(-c2ccc(C#N)c(Cl)c2)n1)NC(=O)c1cc(C(C)O)[nH]n1 (stereo unspecified) + CC(Nc1ccc2c(c1)OCCn1cc(N3C(=O)OCC3C(F)F)nc1-2)C(N)=O ?
output: 79.6

input: Recorded viability, T/C of Cn1nccc1Nc1nccc(-c2ccn(C(CO)c3ccc(Cl)c(F)c3)c(=O)c2)n1 (stereo unspecified) + CC(Nc1ccc2c(c1)OCCn1cc(N3C(=O)OCC3C(F)F)nc1-2)C(N)=O , please.
output: 37

input: // returns reported viability, T/C for input C[C@@H](NC(=O)c1ncnc(N)c1Cl)c1ncc(C(=O)Nc2cc(C(F)(F)F)c(Cl)cn2)s1 + CC(Nc1ccc2c(c1)OCCn1cc(N3C(=O)OCC3C(F)F)nc1-2)C(N)=O
output: 98.4

input: Request the reported viability, T/C associated with CC(Cn1ccc(-c2ccc(C#N)c(Cl)c2)n1)NC(=O)c1cc(C(C)O)[nH]n1 (stereo unspecified) + COc1c(OCCCN2CCOCC2)ccc2c3n(c(=NC(=O)c4cnc(N)nc4)nc12)CCN3
output: 72.8

input: Using the record for C=CC(=O)N1CCN(c2nc(=O)n(-c3c(C)ccnc3C(C)C)c3nc(-c4c(O)cccc4F)c(F)cc23)C(C)C1 (stereo unspecified) + COc1c(OCCCN2CCOCC2)ccc2c3n(c(=NC(=O)c4cnc(N)nc4)nc12)CCN3 , report its viability, T/C.
output: 103

input: Request the reported viability, T/C associated with C[C@@H](NC(=O)c1ncnc(N)c1Cl)c1ncc(C(=O)Nc2cc(C(F)(F)F)c(Cl)cn2)s1 + COc1c(OCCCN2CCOCC2)ccc2c3n(c(=NC(=O)c4cnc(N)nc4)nc12)CCN3
output: 83

* * *

System: 855422-203-R-J1-PDC spheroids with HUVEC/MSC, viability
Measurement Description: Anticancer human tumor 855422-203-R-J1-PDC cell line growth inhibition [PI3K];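 note: agents incubated with spheroids for one week before read-out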;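 for viability, T/C: 100% = DMSO vehicle-treated control wells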
Experimental Context: second compound 0.316 µM; first compound 0.316 µM; stronger effect = lower value
Assay Metric: viability, T/C (%)
Give the value in % but do not write % after it.

input: Entry under review: CC1(C)CCC(CN2CCN(c3ccc(C(=O)NS(=O)(=O)c4ccc(NCC5CCOCC5)c([N+](=O)[O-])c4)c(Oc4cnc5[nH]ccc5c4)c3)CC2)=C(c2ccc(Cl)cc2)C1 + CC(Nc1ccc2c(c1)OCCn1cc(N3C(=O)OCC3C(F)F)nc1-2)C(N)=O . Reported viability, T/C?
output: 53.7

More entries:
input: # query: viability, T/C of entry CC(C)NCC(C(=O)N1CCN(c2ncnc3c2C(C)CC3O)CC1)c1ccc(Cl)cc1 (stereo not drawn) + Cc1nc(NC(=O)N2CCCC2C(N)=O)sc1-c1ccnc(C(C)(C)C(F)(F)F)c1
output: 68.3

input: Data request, read-out viability, T/C, for C=CC(=O)N1CCN(c2nc(=O)n(-c3c(C)ccnc3C(C)C)c3nc(-c4c(O)cccc4F)c(F)cc23)C(C)C1 (stereo not drawn) + COc1c(OCCCN2CCOCC2)ccc2c3n(c(=NC(=O)c4cnc(N)nc4)nc12)CCN3
output: 10.5

* * *

Parameter viability, T/C: see the listing below.
System: 855422-203-R-J1-PDC spheroids with HUVEC/MSC, viability
Measurement Description: Anticancer human tumor 855422-203-R-J1-PDC cell line growth inhibition [PI3K];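 note: agents incubated with spheroids for one week before read-out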;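 for viability, T/C: 100% = DMSO vehicle-treated control wells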
Experimental Context: second compound 0.0316 µM; first compound 0.316 µM; stronger effect = lower value

input: Consider the molecule CCN1CCN(Cc2ccc(Nc3ncc(F)c(-c4cc(F)c5nc(C)n(C(C)C)c5c4)n3)nc2)CC1 + CC(Nc1ncnc2nc[nH]c12)c1cc2cccc(Cl)c2c(=O)n1-c1ccccc1 and give its measured viability, T/C.
output: 76.5%

***
input: What viability, T/C value was documented for this molecule, Cn1nccc1Nc1nccc(-c2ccn(C(CO)c3ccc(Cl)c(F)c3)c(=O)c2)n1 (centres undefined) + CC(Nc1ccc2c(c1)OCCn1cc(N3C(=O)OCC3C(F)F)nc1-2)C(N)=O ?
output: 89.7%

input: Sample CNC(=O)c1ccc(N2C(=S)N(c3ccc(C#N)c(C(F)(F)F)c3)C(=O)C2(C)C)cc1F + CC(Nc1ccc2c(c1)OCCn1cc(N3C(=O)OCC3C(F)F)nc1-2)C(N)=O — what was its viability, T/C?
output: 79.9%

input: What value of viability, T/C has been reported for the following molecule? CC1(C)CCC(CN2CCN(c3ccc(C(=O)NS(=O)(=O)c4ccc(NCC5CCOCC5)c([N+](=O)[O-])c4)c(Oc4cnc5[nH]ccc5c4)c3)CC2)=C(c2ccc(Cl)cc2)C1 + CC(Nc1ncnc2nc[nH]c12)c1cc2cccc(Cl)c2c(=O)n1-c1ccccc1
output: 114%
